System: U87MG pLVX-IDH2 R140Q-neo cells
measurement description: U87MG pLVX-IDH2 R140Q-neo cell based assay, 2-HG in media by LC-MS at 48 hours
measurement setup: Homo sapiens, U-87 MG
# IC50 annotations

Would you please look over these solved cases?
compound: CC(C)(O)CNc1nc(Nc2ccnc(C(F)(F)F)c2)nc(-c2ccccc2F)n1 [Compound 319]
measured on: U87MG pLVX-IDH2 R140Q-neo cells
IC50: < 100 nM
//
compound: CC(C)Nc1nc(Nc2ccnc(C3(C)CC3)c2)nc(-c2cccc(C(F)(F)F)n2)n1 [Compound 581]
measured on: U87MG pLVX-IDH2 R140Q-neo cells
IC50: < 100 nM
//
compound: CNc1cccc(-c2nc(Nc3cccc(S(C)(=O)=O)c3)nc(NC(C)C)n2)n1 [Compound 364]
measured on: U87MG pLVX-IDH2 R140Q-neo cells
IC50: 100 to 1000 nM
//
compound: Fc1cncc(Nc2nc(NC3[C@H]4COC[C@@H]34)nc(-c3ccccc3F)n2)c1 (some centres unmarked) [Compound 638]
measured on: U87MG pLVX-IDH2 R140Q-neo cells
IC50: < 100 nM
//
compound: CC(C)Nc1nc(Nc2ccccc2)nc(-c2cccc(Cl)c2)n1 [Compound 158]
measured on: U87MG pLVX-IDH2 R140Q-neo cells
IC50: 100 to 1000 nM
//
compound: CC(C)Nc1nc(Nc2ccnc(C(F)(F)F)c2)nc(-c2cc(F)cc(Cl)c2)n1 [Compound 647]
measured on: U87MG pLVX-IDH2 R140Q-neo cells
IC50: < 100 nM

stdin: // lookup IC50 | system=U87MG pLVX-IDH2 R140Q-neo cells | key= CC(C)Nc1nc(Nc2cc(F)cc(F)c2)nc(-c2cccc(Cl)n2)n1 [Compound 340]
stdout: < 100 nM

stdin: Check CC(C)Nc1nc(Nc2cc(F)cc(F)c2)nc(-c2cccc(C(C)(F)F)n2)n1 [Compound 583] too.
stdout: < 100 nM

* * *

measured on: IDH2 R140Q (Homo sapiens, UniProt P48735, R140Q)
Sequence (P48735 40-452 R140Q): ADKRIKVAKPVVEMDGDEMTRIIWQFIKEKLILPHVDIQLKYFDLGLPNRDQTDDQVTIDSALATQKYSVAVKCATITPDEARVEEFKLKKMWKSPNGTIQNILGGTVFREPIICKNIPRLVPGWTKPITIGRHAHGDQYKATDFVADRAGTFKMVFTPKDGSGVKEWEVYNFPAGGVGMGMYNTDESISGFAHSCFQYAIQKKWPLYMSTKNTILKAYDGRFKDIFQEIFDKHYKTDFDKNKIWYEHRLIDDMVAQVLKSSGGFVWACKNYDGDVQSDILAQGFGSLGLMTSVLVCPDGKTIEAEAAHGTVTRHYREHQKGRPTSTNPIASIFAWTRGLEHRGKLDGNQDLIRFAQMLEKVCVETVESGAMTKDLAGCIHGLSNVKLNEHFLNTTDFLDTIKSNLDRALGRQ
measurement description: IDH2 R140Q enzymatic assay (cofactor depletion, similar format)
Type: biochemical
measurement setup: read-out: Enz R140Q
measure name: IC50

Answered cases to consult:
molecule: CC1(C(=O)Nc2nc(Nc3ccccc3)nc(-c3ccccc3)n2)CC1 [Compound 245]
IC50: < 100 nM
--
molecule: COc1ccc(F)c(-c2nc(Nc3ccnc(C(F)(F)F)c3)nc(NC(C)C)n2)c1 [Compound 630]
IC50: < 100 nM

Next molecule, please.
stdin: State the recorded IC50 for this entry: FC(F)(F)c1cc(Nc2nc(NC3COC3)nc(-c3cccc(Cl)n3)n2)ccn1 [Compound 356]
stdout: 100 to 1000 nM

* * *

Measured IC50 values are reported for all entries that follow.
System: U87MG pLVX-IDH2 R140Q-neo cells
measurement description: U87MG pLVX-IDH2 R140Q-neo cell based assay, 2-HG in media by LC-MS at 48 hours
measurement setup: Homo sapiens, U-87 MG
Description: U87MG pLVX-IDH2 R140Q-neo cells are grown in T125 flasks in DMEM containing 10% FBS, 1× penicillin/streptomycin and 500 μg/mL G418. They are harvested by trypsin and seeded into 96 well white bottom plates at a density of 5000 cell/well in 100 μl/well in DMEM with 10% FBS. […] At 48 hours, 100 ul of media is removed from each well and analyzed by LC-MS for 2-HG concentrations. […] The plate is then read for luminescence with an integration time of 500 ms to determine compound effects on growth inhibition.

compound: CC(C)C(=O)Nc1nc(Nc2ccccc2)nc(-c2ccccc2)n1 [Compound 167]
IC50: < 0.1 µM

compound: CCNS(=O)(=O)c1cccc(Nc2nc(NC(C)C)nc(-c3ccccc3)n2)c1 [Compound 204]
IC50: 0.1 to 1 µM

compound: O=C(Cc1ccccc1)Nc1nc(Nc2ccccc2)nc(-c2ccccc2)n1 [Compound 172]
IC50: 0.1 to 1 µM

compound: CC(C)Nc1nc(Nc2cc(F)cc(F)c2)nc(-c2nc(N)cc(C(F)(F)F)n2)n1 [Compound 481]
IC50: < 0.1 µM

compound: FC(F)(F)c1cc(Nc2nc(NC3COC3)nc(-c3cccc(C(F)(F)F)n3)n2)ccn1 [Compound 378]
IC50: < 0.1 µM

Let's switch to this compound now.
stdin: Quick one: IC50 for CC(C)Nc1nc(Nc2ccccc2)nc(-c2ccncc2)n1 [Compound 156] ?
stdout: 0.1 to 1 µM

* * *

measured on: IDH2 R140Q (Homo sapiens, UniProt P48735, R140Q)
measurement description: IDH2 R140Q enzymatic assay (cofactor depletion, similar format)
Type: biochemical
measurement setup: read-out: Enz R140Q
pIC50: −log10 of the molar value.
measure name: pIC50

compound: FC(F)(F)c1cc(Nc2nc(NCC3CC3)nc(-c3cccc(C(F)(F)F)n3)n2)ccn1
measure name: pIC50
endpoint result: 6.00 to 7.00

stdin: What value of pIC50 has been reported for the following compound? CC(F)(F)c1cccc(-c2nc(NCC3CC3)nc(Nc3cc(F)cc(F)c3)n2)n1
stdout: 6.00 to 7.00

stdin: Could you do the same for c1ccc(-c2nc(Nc3ccncc3)nc(NC3CCCC3)n2)cc1 [Compound 187] , please?
stdout: > 7.00

stdin: Then this compound: OC1CC1Nc1nc(Nc2ccnc(C(F)(F)F)c2)nc(-c2cccc(C(F)(F)F)n2)n1 (stereo not shown) [Compound 568]
stdout: 6.00 to 7.00

stdin: Ok, now c1ccc(Nc2nc(NC3CC3)nc(-c3ccccc3)n2)cc1
stdout: > 7.00

stdin: Again, but for CC(C)OC(=O)Nc1nc(Nc2ccccc2)nc(-c2ccccc2)n1
stdout: > 7.00

stdin: Lookup CC(C)Nc1nc(Nc2ccncc2C(F)(F)F)nc(-c2ccccc2)n1
stdout: 5.00 to 6.00

* * *

measured on: IDH2 R140Q (Homo sapiens, UniProt P48735, R140Q)
measurement description: IDH2 R140Q enzymatic assay (cofactor depletion, similar format)
Type: biochemical
measurement setup: read-out: Enz R140Q
measure name: IC50

Below are worked cases with known answers.
molecule: CC(C)Nc1nc(Nc2ccncc2)nc(-c2cccc(F)c2)n1
endpoint result: < 100 nM
//
molecule: CC(C)Nc1nc(Nc2ccnc(C(F)(F)F)c2)nc(-c2cccc(C(N)=O)c2)n1
endpoint result: 100 to 1000 nM
//
molecule: CC(C)Nc1nc(Nc2cncc(F)c2)nc(-c2ccccc2F)n1
endpoint result: < 100 nM
//
molecule: CC(C)Nc1nc(Nc2cnn(C)c2)nc(-c2ccccc2)n1
endpoint result: < 100 nM
//
molecule: CC(C)Nc1nc(Nc2cc(F)cc(F)c2)nc(-c2nc(O)ccc2F)n1
endpoint result: < 100 nM
//
molecule: CCC(=O)c1cc(Nc2nc(NC(C)C)nc(-c3cccc(C(F)(F)F)n3)n2)ccn1
endpoint result: 100 to 1000 nM

stdin: Lab request: please report IC50 under test system IDH2 R140Q (Homo sapiens, UniProt P48735, R140Q) for CC(C)Nc1nc(NC(=O)Cc2ccccc2)nc(-c2ccccc2)n1
stdout: 100 to 1000 nM

stdin: # iterate: CC(C)Nc1nc(Nc2cccc(S(=O)(=O)NC(C)(C)C)c2)nc(-c2ccccc2)n1
stdout: 100 to 1000 nM

stdin: Check CNc1cccc(-c2nc(Nc3cccc(S(C)(=O)=O)c3)nc(NC(C)C)n2)n1 too.
stdout: 1000 to 10000 nM

stdin: Next: CC(C)Nc1nc(Nc2ccccc2)nc(-c2ccnn2C)n1
stdout: 100 to 1000 nM

stdin: Item: CC(C)Nc1nc(Nc2cc(F)cc(S(C)(=O)=O)c2)nc(-c2cccc(C(C)(F)F)n2)n1
stdout: 100 to 1000 nM

stdin: Okay, and CC(C)Nc1nc(Nc2ccnc(C#N)c2)nc(-c2cccc(C(F)(F)F)n2)n1 ?
stdout: 100 to 1000 nM

stdin: And what about the molecule CC(C)Nc1nc(Nc2ccccc2)nc(-c2ccccn2)n1 ?
stdout: < 100 nM

* * *

System: U87MG pLVX-IDH2 R140Q-neo cells
measurement description: U87MG pLVX-IDH2 R140Q-neo cell based assay, 2-HG in media by LC-MS at 48 hours
measurement setup: Homo sapiens, U-87 MG
pIC50: −log10 of the molar value.
In this section we review reported pIC50 values for a set of compounds.

Use these answered entries as a reference point.
smiles repr: Cc1nc(-c2nc(Nc3cccc(F)c3)nc(NC(C)C)n2)co1
measured on: U87MG pLVX-IDH2 R140Q-neo cells
pIC50: > 7.00
--
smiles repr: COCCCNc1nc(Nc2ccnc(C(F)(F)F)c2)nc(-c2cccc(C(F)(F)F)n2)n1
measured on: U87MG pLVX-IDH2 R140Q-neo cells
pIC50: > 7.00
--
smiles repr: CC(C)Nc1nc(Nc2ccnc(N3CCOCC3)c2)nc(-c2ccccc2)n1
measured on: U87MG pLVX-IDH2 R140Q-neo cells
pIC50: > 7.00
--
smiles repr: CC(C)Nc1nc(Nc2ccccc2)nc(-c2cccc(C(F)(F)F)n2)n1
measured on: U87MG pLVX-IDH2 R140Q-neo cells
pIC50: > 7.00
--
smiles repr: CC(C)(O)CNc1nc(Nc2ccnc(C(C)(F)F)c2)nc(-c2cccc(C(C)(F)F)n2)n1
measured on: U87MG pLVX-IDH2 R140Q-neo cells
pIC50: > 7.00

stdin: Fill in: pIC50 of CC(=O)Nc1cccc(-c2nc(Nc3ccnc(C(F)(F)F)c3)nc(NC(C)C)n2)n1 is ___
stdout: 6.00 to 7.00

stdin: Try the compound CC(C)Nc1nc(Nc2cc(F)cc(F)c2)nc(-c2nc(N)ccc2F)n1
stdout: > 7.00

stdin: Could you do the same for CS(=O)(=O)c1cccc(Nc2nc(NCC3CC3)nc(-c3cccc(C(F)(F)F)n3)n2)c1 , please?
stdout: > 7.00

stdin: For FC(F)(F)c1cncc(Nc2nc(NC3COC3)nc(-c3cccc(C(F)(F)F)n3)n2)c1 then?
stdout: > 7.00
